biological target: calmodulin (Sigma); test: fluorescence polarization, calmodulin (text differs from Table 2)
Square brackets hold non-standard residues; d marks the D form. Ends that are not written are not given here. acetamidofluorescein = acetamidofluorescein label attached to the side chain of a C-terminal cysteine residue (made by modifying the cysteine with 5-iodoacetamidofluorescein); pS = N[C@@H](COP(=O)(O)O)C(=O)O

Binder: GPSQPTYPGDDAPVRRL[pS]FFYILLDLYLDAPGVC(acetamidofluorescein)-NH2 (designed binder, also called PPKID4 (phosphorylated); wild type PPKID4^P) [PPKID4^P]
Kd: 51 µM
